# System: phenol red retention in circulation
# protocol.text: Uricosuric activity by phenol red retention test in mice
# Assay type: in vivo, male mice
# measurement.setup: Mus musculus, sc, 1 h; mice; s.c. 200 mg/kg, 30 min before 75 mg/kg phenol red; blood 60 min after phenol red; read-out: phenol red retention, percentage by comparison with the control group, S.C. (200 mg/kg)
Parameter response vs control in vivo at 200 mg/kg: see the listing below.
attribute.measured: response vs control in vivo at 200 mg/kg

molecule: CCc1oc2ccccc2c1C(=O)c1ccc(O)c(C)c1 [Compound 23]
target.entity: phenol red retention in circulation
reported: 81%

molecule: CCc1sc2ccccc2c1C(=O)c1ccc(OCC(=O)O)cc1 [Compound 31]
target.entity: phenol red retention in circulation
reported: 144%

molecule: CCc1oc2ccccc2c1C(=O)c1ccc(OCC(=O)O)c(C)c1 [Compound 25]
target.entity: phenol red retention in circulation
reported: 189%

molecule: CCc1oc2ccccc2c1C(=O)c1ccc(OCC(=O)NCC(N)=O)cc1 [Compound 10]
target.entity: phenol red retention in circulation
reported: 123%

molecule: CCOC(=O)COc1ccc(C(O)c2c(CC)oc3ccccc23)cc1 (centres unmarked) [Compound 13]
target.entity: phenol red retention in circulation
reported: 114%

molecule: C=C(CC(=O)c1c(CC)oc2ccccc12)C(=O)O [Compound 21]
target.entity: phenol red retention in circulation
reported: 100%

molecule: CCc1oc2ccccc2c1C(=O)c1ccccc1OCC(=O)O [Compound 1]
target.entity: phenol red retention in circulation
reported: 152%

molecule: CCOC(=O)COc1ccc(C(=O)c2c(CC)oc3ccccc23)cc1C [Compound 24]
target.entity: phenol red retention in circulation
reported: 172%

molecule: CCc1oc2ccccc2c1C(=O)c1cccc(OCC(=O)O)c1 [Compound 2]
target.entity: phenol red retention in circulation
reported: 180%

molecule: CCc1oc2ccccc2c1C(=O)c1ccc(OCC(=O)NO)cc1 [Compound 8]
target.entity: phenol red retention in circulation
reported: 167%

molecule: CCc1oc2ccccc2c1C(=O)c1ccc(OCC(=O)O)cc1 [Compound 3]
target.entity: phenol red retention in circulation
reported: 169%

molecule: CCOC(=O)COc1ccc(C(=O)c2c(CC)oc3ccccc23)cc1Cl [Compound 20]
target.entity: phenol red retention in circulation
reported: 128%

molecule: CCc1oc2ccccc2c1C(=O)c1ccc(OC(C)C(=O)O)cc1 (centres unmarked) [Compound 5]
target.entity: phenol red retention in circulation
reported: 158%

molecule: CCOC(=O)COc1ccc(C(=O)c2c(CC)sc3ccccc23)cc1 [Compound 30]
target.entity: phenol red retention in circulation
reported: 85.7%

molecule: CCCCOC(=O)COc1ccc(C(OCCCC)c2c(CC)oc3ccccc23)cc1 (centres unmarked) [Compound 15]
target.entity: phenol red retention in circulation
reported: 165%

molecule: Cc1oc2ccccc2c1C(=O)c1ccc(OCC(=O)O)cc1 [Compound 18]
target.entity: phenol red retention in circulation
reported: 112%

molecule: CCc1oc2ccccc2c1C(=O)c1ccc(OCC(N)=O)cc1 [Compound 7]
target.entity: phenol red retention in circulation
reported: 123%

molecule: CCOC(=O)COc1ccc(C(OCC)c2c(CC)oc3ccccc23)cc1 (centres unmarked) [Compound 14]
target.entity: phenol red retention in circulation
reported: 135%

molecule: CCc1oc2ccccc2c1C(O)c1ccc(O)cc1 (centres unmarked) [Compound 12]
target.entity: phenol red retention in circulation
reported: 100%

molecule: CCc1sc2ccccc2c1C(=O)c1ccc(O)cc1 [Compound 29]
target.entity: phenol red retention in circulation
reported: 100%

molecule: CCc1oc2ccccc2c1C(=O)c1ccc(O)c(Cl)c1 [Compound 19]
target.entity: phenol red retention in circulation
reported: 105%

molecule: CCc1oc2ccccc2c1C(=O)c1ccc(OCC(=O)NCC(=O)OC)cc1 [Compound 9]
target.entity: phenol red retention in circulation
reported: 125%

molecule: CCOC(=O)COc1ccc(C(=O)c2c(C)oc3ccccc23)cc1 [Compound 17]
target.entity: phenol red retention in circulation
reported: 115%

molecule: CCOC(=O)COc1ccc(C(=O)c2c(CC)oc3ccccc23)cc1[N+](=O)[O-] [Compound 27]
target.entity: phenol red retention in circulation
reported: 111%

molecule: Cc1oc2ccccc2c1C(=O)c1ccc(O)cc1 [Compound 16, 2-methyl-3-(4-hydroxybenzoyl)benzofuran]
target.entity: phenol red retention in circulation
reported: 111%

molecule: CCc1oc2ccccc2c1C(=O)c1ccc(OCC(=O)OC)cc1 [Compound 11]
target.entity: phenol red retention in circulation
reported: 114%

molecule: CCOC(=O)COc1ccc(C(=O)c2c(CC)oc3ccccc23)cc1 [Compound 6]
target.entity: phenol red retention in circulation
reported: 207%

molecule: CCc1oc2ccccc2c1C(=O)c1ccc(OCC(=O)O)c(Cl)c1 [Compound 22]
target.entity: phenol red retention in circulation
reported: 211%

molecule: CCc1oc2ccccc2c1C(=O)c1ccc(OCCC(=O)O)cc1 [Compound 4]
target.entity: phenol red retention in circulation
reported: 143%

###

# System: phenol red retention in circulation
# protocol.text: Uricosuric activity by phenol red retention test in mice
# Assay type: in vivo, male mice
# measurement.setup: Mus musculus, po, 1 h; mice; p.o. 200 mg/kg, 30 min before 75 mg/kg phenol red; blood 60 min after phenol red; read-out: phenol red retention, percentage by comparison with the control group, P.O. (200 mg/kg)

molecule: CCOC(=O)COc1ccc(C(=O)c2c(CC)oc3ccccc23)c(C)c1C
target.entity: phenol red retention in circulation
unit.of.measurement: %
response vs control in vivo at 200 mg/kg: 124
--
molecule: CCOC(=O)COc1cc(C)c(C(=O)c2c(CC)oc3ccccc23)cc1C
target.entity: phenol red retention in circulation
unit.of.measurement: %
response vs control in vivo at 200 mg/kg: 324
--
molecule: CCc1oc2ccccc2c1C(=O)c1cc(C)c(O)cc1C
target.entity: phenol red retention in circulation
unit.of.measurement: %
response vs control in vivo at 200 mg/kg: 131
--
molecule: CCOC(=O)COc1ccc(C(OCC)c2c(CC)oc3ccccc23)cc1 (stereo not shown)
target.entity: phenol red retention in circulation
unit.of.measurement: %
response vs control in vivo at 200 mg/kg: 120
